# Tested on: endogenous NAMPT in U2OS cells
# Protocol notes: Cellular NAD+ modulation assay (NAD/NADH-Glo, U2OS cells)
# Type: cell-based
# Reported conditions: Homo sapiens, 24 hours incubation, cellular NAD+
pEC50: −log10 of the molar value.
Reported endpoint: pEC50

Examples with their reported pEC50 follow.
Cn1ncc(Cl)c1CC1c2cc(N3CCOCC3)ccc2C(=O)N1Cc1ccc2[nH]nnc2c1 (stereo not drawn)    > 6.30
Cn1ncc(Cl)c1CC1c2c(F)cccc2C(=O)N1CC1CC2(CNC(=O)O2)C1 (stereo not drawn)    > 6.30
Cn1c(CC2c3ccccc3C(=O)N2CC2CC3(CNC(=O)O3)C2)c(Cl)ccc1=O (stereo not drawn)    > 6.30
CN(C)c1nn(C)c(CC2c3ccccc3C(=O)N2Cc2ccc3[nH]nnc3c2)c1Cl (stereo not drawn)    > 6.30
COc1ccc(CN2C(=O)c3ccc(C4CC4)cc3C2Cc2c(Cl)cnn2C)cn1 (stereo not drawn)    5.30 to 6.30

I have 6 compounds here; please give me pEC50 for each one.
1. Cn1ncc(Cl)c1CC1c2cc(OC3CNC3)ccc2C(=O)N1Cc1ccc2[nH]nnc2c1 (stereo not drawn)
2. Cn1nc(C(F)F)c(Cl)c1CC1c2ccccc2C(=O)N1Cc1ccc2[nH]nnc2c1 (stereo not drawn)
3. Cn1ncc(Cl)c1CC1c2ccccc2C(C)(C)N1Cc1ccc2[nH]nnc2c1 (stereo not drawn)
4. Cc1cncc(C#N)c1CC1c2ccccc2C(=O)N1Cc1ccc2[nH]nnc2c1 (stereo not drawn)
5. COc1ccc(CN2C(=O)c3ccccc3C2Cc2c(Cl)ccc(=O)n2C)cn1 (stereo not drawn)
6. O=C1c2ccccc2C(Cc2ncccc2Br)N1C/C=C/c1cn[nH]c1 (stereo not drawn)

Result:
1. 4.30 to 5.30
2. > 6.30
3. 5.30 to 6.30
4. > 6.30
5. 5.30 to 6.30
6. > 6.30

I have 2 compounds here; please give me pEC50 for each one.
1. Cn1nc(C2CC2)c(Cl)c1CC1c2ccccc2C(=O)N1Cc1ccc2[nH]nnc2c1 (stereo not drawn)
2. Cc1cccc2c1C(Cc1c(Cl)cnn1C)N(CC1CC3(CNC(=O)O3)C1)C2=O (stereo not drawn)

Result:
["> 6.30", "5.30 to 6.30"]

I have 7 compounds here; please give me pEC50 for each one.
1. Cc1c(CN2C(=O)c3ccccc3C2Cc2ncccc2Br)ccc2[nH]c(=O)oc12 (stereo not drawn)
2. Cn1ncc(Cl)c1CC1c2ccccc2C(=O)N1C[C@]1(F)C[C@@]2(CNC(=O)O2)C1 (stereo partly drawn)
3. Cn1ncc(Cl)c1CC1c2cc(C#N)ccc2C(=O)N1Cc1ccc2[nH]nnc2c1 (stereo not drawn)
4. COc1ncc(CN2C(=O)c3ccccc3C2Cc2c(Cl)cnn2C)s1 (stereo not drawn)
5. Cn1ncc(Cl)c1CC1c2ccccc2C(=O)N1CC1CC1C(N)=O (stereo not drawn)
6. COc1cc(CN2C(=O)c3ccccc3C2Cc2c(Cl)cnn2C)on1 (stereo not drawn)
7. N#Cc1cncc(C#N)c1CC1c2ccccc2C(=O)N1CC1CC2(CNC(=O)O2)C1 (stereo not drawn)

Result:
["4.30 to 5.30", "> 6.30", "> 6.30", "5.30 to 6.30", "4.30 to 5.30", "5.30 to 6.30", "> 6.30"]

====

# System under test: human enzyme NAMPT (full length) (Homo sapiens, UniProt P43490)
# Construct: human enzyme NAMPT (full length)
# Sequence (P43490 whole entry): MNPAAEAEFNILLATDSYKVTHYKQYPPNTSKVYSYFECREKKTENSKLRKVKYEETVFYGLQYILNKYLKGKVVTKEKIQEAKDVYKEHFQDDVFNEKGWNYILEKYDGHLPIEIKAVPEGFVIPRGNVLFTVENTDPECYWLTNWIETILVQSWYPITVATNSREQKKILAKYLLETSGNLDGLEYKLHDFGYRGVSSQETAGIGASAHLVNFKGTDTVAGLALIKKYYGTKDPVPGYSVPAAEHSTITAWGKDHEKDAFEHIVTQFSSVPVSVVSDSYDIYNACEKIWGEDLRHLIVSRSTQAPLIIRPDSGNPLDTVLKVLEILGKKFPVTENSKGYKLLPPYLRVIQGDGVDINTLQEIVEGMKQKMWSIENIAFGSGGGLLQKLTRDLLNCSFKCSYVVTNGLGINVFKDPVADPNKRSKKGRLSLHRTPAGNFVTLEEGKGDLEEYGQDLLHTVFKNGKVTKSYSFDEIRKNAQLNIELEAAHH
# Protocol notes: NMN fluorescence biochemical assay (stimulation of NMN synthesis by NAMPT)
# Reported conditions: fold change of maximal activation compared to DMSO
Reported endpoint: Enzymatic Emax

Examples with their reported Enzymatic Emax follow.
Cn1nc(Cl)c(Cl)c1CC1c2ccccc2C(=O)N1C[C@H]1C[C@@]2(CNC(=O)O2)C1 (stereo partly drawn) [Compound 500]    C (2≥C)
O=C1c2ccccc2C(CCc2ccccc2)N1Cc1ccc2[nH]c(=O)oc2c1 (stereo not drawn) [Compound 114]    B (3≥B>2)
O=C1c2ccccc2C(Cc2ccccc2OC(F)F)N1Cc1ccc2[nH]c(=O)oc2c1 (stereo not drawn) [Compound 210]    A (A>3)
O=C1c2c(Br)cccc2CN1Cc1ccc(O)cc1 [Compound 29]    A (A>3)

I have 8 compounds here; please give me Enzymatic Emax for each one.
1. Cc1ccnc(C#N)c1CC1c2cc(C#N)ccc2C(=O)N1Cc1ccc2[nH]nnc2c1 (stereo not drawn) [Compound 359]
2. CNCc1ccc2c(c1)C(=O)N(Cc1ccc3[nH]nnc3c1)C2Cc1c(Cl)cnn1C (stereo not drawn) [Compound 422]
3. COc1ccc2c(c1)C(=O)N(Cc1ccc3[nH]nnc3c1)C2Cc1c(Cl)cnn1C (stereo not drawn) [Compound 414]
4. CCn1c2ccccc2c(=O)n1Cc1ccc(O)cc1 [Compound 24]
5. CC1c2ccccc2C(=O)N1Cc1ccc2[nH]c(=O)oc2c1 (stereo not drawn) [Compound 54]
6. COc1cc(CN2C(=O)c3ccccc3C2Cc2c(Cl)cnn2C)on1 (stereo not drawn) [Compound 593]
7. Cn1ncc(Cl)c1CC1c2cc(Cl)ccc2C(=O)N1Cc1ccc2[nH]nnc2c1 (stereo not drawn) [Compound 354]
8. N#Cc1ccccc1CC1c2ccccc2C(=O)N1Cc1ccc(O)cc1 (stereo not drawn) [Compound 169]

Result:
["B (3≥B>2)", "B (3≥B>2)", "A (A>3)", "A (A>3)", "A (A>3)", "B (3≥B>2)", "A (A>3)", "B (3≥B>2)"]

I have 4 compounds here; please give me Enzymatic Emax for each one.
1. N#Cc1ccncc1CC1c2ccccc2C(=O)N1Cc1ccc2[nH]c(=O)oc2c1 (stereo not drawn) [Compound 203]
2. COc1ccc(CN2C(=O)c3ccccc3C2Cc2c(Cl)cnn2C)cc1F (stereo not drawn) [Compound 517]
3. O=C1c2ccccc2C(CC2CCCCC2)N1Cc1ccc2[nH]c(=O)oc2c1 (stereo not drawn) [Compound 167]
4. O=C1c2cccnc2CN1Cc1ccc(O)cc1 [Compound 39]

Result:
A (A>3)
B (3≥B>2)
B (3≥B>2)
B (3≥B>2)

I have 2 compounds here; please give me Enzymatic Emax for each one.
1. O=C1N[C@H]2CCC(CN3C(=O)c4ccccc4C3Cc3ncccc3Br)C[C@@H]2O1 (relative stereo) [Compound 466]
2. COc1ccc(CN2C(=O)c3ccccc3C2Cc2c(C#N)ccnc2C#N)cn1 (stereo not drawn) [Compound 598]

Result:
["C (2≥C)", "B (3≥B>2)"]
